- Test target: Eukaryotic translation initiation factor 4E (Mus musculus)
- Sequence (P63073 whole entry): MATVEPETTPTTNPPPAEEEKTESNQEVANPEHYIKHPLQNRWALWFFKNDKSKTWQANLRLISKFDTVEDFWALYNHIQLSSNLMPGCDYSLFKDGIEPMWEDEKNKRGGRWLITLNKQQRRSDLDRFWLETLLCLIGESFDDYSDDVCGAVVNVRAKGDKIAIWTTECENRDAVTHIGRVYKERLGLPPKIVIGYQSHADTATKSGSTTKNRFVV
- Procedure text: blockers of eIF4G binding by eIF4E – biochemical, TR-FRET, dose response (AID 855);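 further: potency for disrupting eIF4E binding to eIF4GI seen as loss of FRET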
- Type: functional
Calls of active or inactive are those of the source.
Quick reference for IC50 among some compounds

In the examples that follow, each entry is paired with its recorded IC50.
>  <Compound>
CN1CCN(CCCNC(=O)c2ccc(/C=C3\Sc4ccccc4N(Cc4ccccc4F)C3=O)cc2)CC1

>  <Endpoint value>
50 µM (inactive)

$$$$
>  <Compound>
CCc1c(C)sc(NC(=O)C2CCCCC2C(=O)O)c1C(N)=O (stereo not given)

>  <Endpoint value>
> 64 µM (inactive)

$$$$
>  <Compound>
c1ccc(-n2nnc3cnccc32)cc1

>  <Endpoint value>
> 64 µM (inactive)

$$$$
>  <Compound>
Cc1ccc(SCc2cc(=O)[nH]c(NC(N)=Nc3ccc(C)c(C)c3)n2)cc1

>  <Endpoint value>
> 64 µM (inactive)

$$$$

# evaluate next
Prompt: For the compound `CCOc1cc(C(=S)N2CCOCC2)ccc1O` , what IC50 is on record?
Completion: > 64 µM (inactive)

----------
- Test target: DNA repair protein RAD52 homolog (Homo sapiens, UniProt P43351)
- Sequence (P43351 whole entry): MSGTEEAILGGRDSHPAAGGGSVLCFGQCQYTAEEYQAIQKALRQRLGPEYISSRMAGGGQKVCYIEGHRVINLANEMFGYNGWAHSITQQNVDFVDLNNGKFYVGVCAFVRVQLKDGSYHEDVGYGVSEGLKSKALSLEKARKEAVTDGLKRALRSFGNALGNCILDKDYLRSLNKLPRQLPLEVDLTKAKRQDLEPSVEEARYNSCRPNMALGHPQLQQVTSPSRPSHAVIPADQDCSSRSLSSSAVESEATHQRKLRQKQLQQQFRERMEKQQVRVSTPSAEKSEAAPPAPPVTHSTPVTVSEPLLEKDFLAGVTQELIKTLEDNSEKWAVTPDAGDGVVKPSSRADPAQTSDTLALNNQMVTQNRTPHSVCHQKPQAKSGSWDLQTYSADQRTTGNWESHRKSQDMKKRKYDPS
- Assay type: functional, biochemical
The source made the active and inactive calls.
Parameter: AC50

In the examples that follow, each entry is paired with its recorded AC50.
>  <Molecule>
CN1CCN(CCCNC(=O)c2ccc(/C=C3\Sc4ccccc4N(Cc4ccccc4F)C3=O)cc2)CC1

>  <Endpoint value>
5.23 µM (active)

$$$$
>  <Molecule>
CN(C)CCNC(=O)c1cccc(-c2cnc3c(NC=O)cc(-c4cccc(F)c4)cn23)c1

>  <Endpoint value>
5.99 µM (active)

$$$$
>  <Molecule>
CN(C)CCCNc1ccc(-c2nnc(O)c3ccccc23)cc1[N+](=O)[O-]

>  <Endpoint value>
20.5 µM (active)

$$$$

# evaluate next
Prompt: For the molecule COc1cc2c(cc1OC)CN1CCc3cc(OC)c(OC)cc3C1C2 (centres undefined) , what AC50 is on record?
Completion: 4.49 µM (active)

----------
- Procedure text: blockers of CRF-binding protein–CRF-R2 complex – cell-based, uHTS hits, 384-well, dose response (AID 651639)
- Assay type: functional, Homo sapiens
- Stated conditions: read-out: IC50_Mean
Active and inactive are the calls of the source.
Choose the fitting class; nothing outside active, inactive is accepted.

Example entries and their recorded answers appear below.
>  <Compound>
Cc1nn(-c2ccccc2)c(N)c1Sc1ccc([N+](=O)[O-])cc1

>  <Cat>
active

$$$$
>  <Compound>
COc1cc(C=C2C(=O)c3ccccc3C2=O)cc(OC)c1OC

>  <Cat>
active

$$$$
>  <Compound>
CC(NC(=O)CC(c1ccccc1)c1cc(Cl)ccc1O)c1ccccc1 (centres undefined)

>  <Cat>
inactive

$$$$

Lab note: next compound to report on.
Prompt: Assay outcome for `COc1ccc(NC(=O)CN(C)C(=O)C2=COCCO2)cc1` : what was it?
Completion: inactive

----------
- Test target: Sentrin-specific protease 8 (Homo sapiens, UniProt Q96LD8);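 further: luminescence read-out of SENP8 inhibition, dose-response confirmation following an ultra-high-throughput screen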
- Sequence (Q96LD8 whole entry): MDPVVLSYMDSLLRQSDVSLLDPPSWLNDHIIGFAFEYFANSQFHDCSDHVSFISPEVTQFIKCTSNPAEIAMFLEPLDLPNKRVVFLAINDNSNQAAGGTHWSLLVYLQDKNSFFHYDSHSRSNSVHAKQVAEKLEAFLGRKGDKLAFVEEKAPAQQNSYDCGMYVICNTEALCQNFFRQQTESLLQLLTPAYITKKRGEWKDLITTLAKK
- Assay type: functional
Activity calls are given as the source filed them.
Choose the fitting class; nothing outside y (active), n (inactive) is accepted.

Example entries and their recorded answers appear below.
>  <Compound>
CCOC(=O)c1sc(NC(=O)c2ccc(C)s2)cc1C

>  <Cat>
n

$$$$
>  <Compound>
O=c1oc2c(O)cccc2cc1-c1nc2ccccc2[nH]1

>  <Cat>
y

$$$$
>  <Compound>
C=CCn1c(NC(=O)c2ccccc2Cl)c(C#N)c2nc3ccccc3nc21

>  <Cat>
y

$$$$
>  <Compound>
CC1=NN(C(N)=S)C(=O)C1N=Nc1ccccc1 (stereo not given)

>  <Cat>
n

$$$$

Lab note: next compound to report on.
Prompt: Assay outcome for `CCOC(=O)c1ccc(Nc2cc3ccccc3c(O)n2)cc1` : what was it?
Completion: y

----------
- Test target: Tyrosyl-DNA phosphodiesterase 2 (Homo sapiens)
- Sequence (O95551 whole entry): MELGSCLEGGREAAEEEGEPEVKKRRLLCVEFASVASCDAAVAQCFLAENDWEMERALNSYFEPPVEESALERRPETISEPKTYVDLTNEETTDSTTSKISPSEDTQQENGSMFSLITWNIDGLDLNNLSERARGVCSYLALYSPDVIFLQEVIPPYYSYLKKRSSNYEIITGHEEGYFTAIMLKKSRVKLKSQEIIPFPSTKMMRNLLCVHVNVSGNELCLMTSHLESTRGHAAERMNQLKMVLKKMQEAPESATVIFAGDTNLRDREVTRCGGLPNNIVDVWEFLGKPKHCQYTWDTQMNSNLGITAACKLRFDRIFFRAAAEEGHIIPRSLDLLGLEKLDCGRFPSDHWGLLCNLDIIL
- Procedure text: potency against TDP2 phosphodiesterase activity – biochemical, epi absorbance, IC50, dose response (AID 743297)
The source made the active and inactive calls.
Parameter: IC50

In the examples that follow, each entry is paired with its recorded IC50.
>  <Chem smiles>
Oc1c(/C=N/c2cccc3nsnc23)ccc2ccccc12

>  <Test target>
Tyrosyl-DNA phosphodiesterase 2 (Homo sapiens)

>  <IC50>
80.5 µM (inactive)

$$$$
>  <Chem smiles>
C=CCn1c(NC(=O)c2ccccc2Cl)c(C#N)c2nc3ccccc3nc21

>  <Test target>
Tyrosyl-DNA phosphodiesterase 2 (Homo sapiens)

>  <IC50>
> 128 µM (inactive)

$$$$
>  <Chem smiles>
Cc1cc2c(N)cccc2nn1

>  <Test target>
Tyrosyl-DNA phosphodiesterase 2 (Homo sapiens)

>  <IC50>
27.2 µM (inactive)

$$$$

# evaluate next
Prompt: For the compound `COc1ccc(NC2=C(NCCO)C(=O)c3ccccc3C2=O)cc1` , what IC50 is on record?
Completion: 88.7 µM (inactive)

----------
- Test target: Nucleotide-binding oligomerization domain-containing protein 2 (Homo sapiens)
- Sequence (Q9HC29 whole entry, the tested form may be a part): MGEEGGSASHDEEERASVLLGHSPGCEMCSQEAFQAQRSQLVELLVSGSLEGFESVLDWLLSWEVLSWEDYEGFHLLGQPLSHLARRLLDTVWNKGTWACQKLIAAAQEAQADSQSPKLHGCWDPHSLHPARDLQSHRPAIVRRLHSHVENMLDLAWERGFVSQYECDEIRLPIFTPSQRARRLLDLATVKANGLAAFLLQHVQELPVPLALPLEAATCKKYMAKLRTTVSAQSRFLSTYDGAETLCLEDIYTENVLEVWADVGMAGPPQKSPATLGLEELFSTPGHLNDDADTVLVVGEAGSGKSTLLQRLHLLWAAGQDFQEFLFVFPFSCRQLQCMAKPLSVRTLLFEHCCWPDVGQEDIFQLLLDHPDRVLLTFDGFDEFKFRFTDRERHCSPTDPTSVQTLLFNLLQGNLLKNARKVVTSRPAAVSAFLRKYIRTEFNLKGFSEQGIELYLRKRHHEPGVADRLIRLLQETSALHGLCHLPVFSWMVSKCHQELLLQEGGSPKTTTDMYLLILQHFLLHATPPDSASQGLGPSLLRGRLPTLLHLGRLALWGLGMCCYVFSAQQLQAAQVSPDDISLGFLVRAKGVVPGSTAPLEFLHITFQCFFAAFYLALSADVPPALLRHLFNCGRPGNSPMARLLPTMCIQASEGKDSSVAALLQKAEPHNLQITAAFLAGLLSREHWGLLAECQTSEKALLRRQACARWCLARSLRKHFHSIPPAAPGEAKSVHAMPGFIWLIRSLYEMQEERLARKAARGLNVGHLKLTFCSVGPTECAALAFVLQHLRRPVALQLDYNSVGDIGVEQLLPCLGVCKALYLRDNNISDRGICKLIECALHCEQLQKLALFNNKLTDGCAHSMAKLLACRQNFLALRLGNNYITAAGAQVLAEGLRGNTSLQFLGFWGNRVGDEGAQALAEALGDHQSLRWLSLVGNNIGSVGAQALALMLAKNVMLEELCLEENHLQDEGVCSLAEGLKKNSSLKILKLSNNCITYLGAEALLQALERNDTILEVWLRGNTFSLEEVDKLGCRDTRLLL
- Procedure text: inhibition of NOD2-driven NF-kB reporter – cell-based, luminescence, uHTS, HEK293 (AID 1566)
- Type: functional
Active and inactive are the calls of the source.
Choose the fitting class; nothing outside active, inactive is accepted.

Example entries and their recorded answers appear below.
>  <Chem smiles>
CCSCCc1nnc(NC(=O)Nc2cccc(C(F)(F)F)c2)s1

>  <Cat>
active

$$$$
>  <Chem smiles>
Cc1ccccc1C(=O)N1CCN(c2ccc(NC(=O)c3ccc4c(c3)OCCO4)cc2)CC1

>  <Cat>
active

$$$$
>  <Chem smiles>
COc1cc([N+](=O)[O-])ccc1-c1ccc(/C=N/NC(=O)c2ccccc2O)o1

>  <Cat>
inactive

$$$$
>  <Chem smiles>
Cc1ccccc1S(=O)(=O)Cc1ccc(C(=O)N2CCN(c3cccc(C)c3C)CC2)o1

>  <Cat>
active

$$$$

Lab note: next compound to report on.
Prompt: Assay outcome for `Cc1ccc(-c2csc(N3CCN(CCCn4c(-c5ccncc5)nc5ccccc54)CC3)n2)cc1` : what was it?
Completion: active

----------
- Test target: Heat shock factor protein 1 (Mus musculus, UniProt P38532)
- Sequence (P38532 whole entry): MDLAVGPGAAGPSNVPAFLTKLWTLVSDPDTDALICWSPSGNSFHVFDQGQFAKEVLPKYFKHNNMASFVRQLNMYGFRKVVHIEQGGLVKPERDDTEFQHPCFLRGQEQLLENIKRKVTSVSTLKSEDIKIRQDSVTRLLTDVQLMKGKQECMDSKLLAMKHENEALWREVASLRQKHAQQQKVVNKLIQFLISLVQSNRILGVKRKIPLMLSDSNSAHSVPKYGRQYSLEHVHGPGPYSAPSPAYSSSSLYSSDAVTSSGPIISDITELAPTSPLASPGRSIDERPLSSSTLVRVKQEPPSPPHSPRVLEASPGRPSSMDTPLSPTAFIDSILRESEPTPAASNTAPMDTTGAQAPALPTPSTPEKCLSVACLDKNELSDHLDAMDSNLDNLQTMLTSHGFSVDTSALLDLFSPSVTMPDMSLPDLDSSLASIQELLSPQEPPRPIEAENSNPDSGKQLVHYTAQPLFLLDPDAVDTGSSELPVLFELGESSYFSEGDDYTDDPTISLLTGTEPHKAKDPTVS
- Procedure text: decrease of HSF1-responsive luciferase luminescence – cell-based, NIH3T3, dose retest, confirmation (AID 2382);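 further: NIH3T3 fibroblasts with HSF1-driven luciferase reporter stressed by proteasome inhibitor MG132; luminescence from HSF1-driven luciferase expression after 8 hours of MG132 stress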
- Type: functional
Active and inactive are the calls of the source.
Parameter: EC50

Prompt: For the molecule `O=C(c1cccs1)n1nc(-c2ccco2)nc1SCc1ccccc1` , what EC50 is on record?
Completion: > 195 µM (not active)

Prompt: Same for CC1CCc2nc(N)c(C#N)c(-c3cccnc3)c2C1 (stereo unspecified)
Completion: 1.83 µM (active)

Prompt: Same for Cc1ccc(NC(=O)C2CCCN2S(=O)(=O)c2ccc3c(c2)n(C)c(=O)c(=O)n3C)cc1C (stereo unspecified)
Completion: > 195 µM (not active)

Prompt: Same for `CCOc1ccc2nc(NC(=O)c3cc([N+](=O)[O-])ccc3N3CCOCC3)sc2c1`
Completion: 15 µM (active)

Prompt: Same for CCCOc1ccc(N2CC(C(=O)NC(C)C)CC2=O)cc1 (stereo unspecified)
Completion: > 195 µM (not active)

Prompt: Same for `COc1ccc(S(=O)(=O)Nc2ccccc2C(=O)N2CCOCC2)cc1Cl`
Completion: 46 µM (active)

----------
- Procedure text: Trypanosoma cruzi growth suppression in host cells – NIH3T3 host cells, beta-gal luminescence, confirmation (AID 2044);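 further: intracellular parasites grown in NIH/3T3 mouse fibroblasts as host cells; luminescent beta-galactosidase reporter signal from transgenic T. cruzi replicating inside host cells; inhibitors lower the luminescence signal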
- Format: functional, cell-based
Activity calls are given as the source filed them.
Quick reference for EC50 among some molecules

In the examples that follow, each entry is paired with its recorded EC50.
>  <Chem smiles>
Cc1ccc(-c2nn(-c3cc(N4CCNCC4)ccc3[N+](=O)[O-])c(=O)c3ccccc23)cc1

>  <EC50>
2.04 µM (active)

$$$$
>  <Chem smiles>
Nc1c(S(=O)(=O)c2cccc(Cl)c2)c2nc3ccccc3nc2n1/N=C/c1ccc(O)c(O)c1

>  <EC50>
3.16 µM (active)

$$$$
>  <Chem smiles>
Cc1ccc(N=Nc2ccc(O)c3ncccc23)cc1

>  <EC50>
0.686 µM (active)

$$$$
>  <Chem smiles>
O=[N+]([O-])c1ccc(/C=N/n2c(CO)nc3ccccc32)s1

>  <EC50>
0.568 µM (active)

$$$$

Prompt: For the molecule `C=C(C)COc1ccc(-c2ncncc2-c2ccccc2OC)c(O)c1` , what EC50 is on record?
Completion: 0.544 µM (active)

Prompt: Same for `O=C(N/N=C/c1c(O)ccc2ccccc12)c1cccnc1`
Completion: 3.14 µM (active)
